# Tested on: C. guilliermondii IBA 155
# PROCEDURE TEXT: antifungal activity (disc-diffusion, MIC, MFC)
# Format: cell-based, Candida guilliermondii
# CONDITION: Meyerozyma guilliermondii, IBA155; fluconazole by Etest
ENDPOINT LABEL: MIC (µg/mL)

* OB(O)c1ccc(B(O)O)c(F)c1 | 400
* OB(O)c1cc(F)c(F)c(B(O)O)c1 | 400
* OB(O)c1ccc(C(F)(F)F)cc1B(O)O | 3.12

P = OC(Cn1cncn1)(Cn1cncn1)c1ccc(F)cc1F [Fl, fluconazole, reference compound]
Q = OB(O)c1cc(I)c(B(O)O)cc1I
R = OB(O)c1cc(F)ccc1F
Q. Order the 3 compounds from highest to lowest MIC. Form entry: labels listed in requested order.
A. Q, R, P

* * *

Recorded The lowest FICI with ceftazidime, one value per entry.
# Test system: P. aeruginosa MUW 700 cAmpC-positive
# PROCEDURE TEXT: checkerboard microdilution, antibiotic plus tested agent
# Assay type: cell-based, Pseudomonas aeruginosa
Hey, just send me the number, nothing else.

• OB(O)c1cccc(B(O)O)c1 = 0.14

Q. P. aeruginosa MUW 700 cAmpC-positive / The lowest FICI with ceftazidime / OB(O)c1cc(F)ccc1F : value?
A. 0.10

Q. Queued: OB(O)c1cc(F)cc(B(O)O)c1
A. 0.26

Q. Follow-up entry: OB(O)c1ccccc1B(O)O
A. 0.29

Q. Item: OB(O)c1ccc(B(O)O)c(B(O)O)c1
A. 0.15

Q. Now give it for OB(O)c1cccc(F)c1B(O)O too.
A. 0.27

Q. Item: OB(O)c1cc(B(O)O)c(F)cc1F
A. 0.15

Q. Same question, OB(O)c1ccc(B(O)O)cc1 this time
A. 0.08

Q. Param item: OB(O)c1ccccc1 [PBA, phenylboronic acid, reference compound]
A. 0.07

Q. Note, next up: OB(O)c1cc(F)c(B(O)O)c(F)c1
A. 0.27

Q. Another molecule to check: OB(O)c1cc(F)c(B(O)O)cc1F
A. 0.29

* * *

# Test system: B. subtilis ATCC 6633
# PROCEDURE TEXT: direct antimicrobial activity (disc-diffusion)
# Format: cell-based
# CONDITION: Bacillus subtilis, ATCC6633; 0.4 mg per disc, 9 mm disc (linezolid 0.03 mg, 6 mm disc); - no zone; read-out: Diameter of inhibition zone
Reported zone of inhibition at 0.4 mg/disc values are given for each entry in this list.
Numbers only here, please. The scale is mm.

Q. I would be grateful if you could share the reported zone of inhibition at 0.4 mg/disc for O=Cc1cc(F)ccc1B(O)O .
A. 22

* * *

# Test system: AmpC producers
# PROCEDURE TEXT: microdilution with ceftazidime
# Type: cell-based
# CONDITION: agent 4 mg/L
ceftazidime MIC reduction, up to listing for selected molecules.

• OB(O)c1cc(F)ccc1F = ≤ 8 fold

Q. Using the record for OB(O)c1ccccc1B(O)O , report its ceftazidime MIC reduction, up to.
A. ≤ 2 fold

Q. Same question, OB(O)c1cc(B(O)O)c(B(O)O)s1 this time
A. ≤ 2 fold

Q. Also check OB(O)c1ccsc1B(O)O
A. ≤ 2 fold

Q. Also OB(O)c1cccc(F)c1B(O)O , if possible.
A. ≤ 2 fold

Q. Another molecule: OB(O)c1ccc(B(O)O)c(B(O)O)c1
A. ≤ 2 fold

* * *

# System: S. cerevisiae ATCC 9763
# PROCEDURE TEXT: antifungal activity (disc-diffusion, MIC, MFC)
# Format: cell-based
# CONDITION: Saccharomyces cerevisiae, ATCC9763; fluconazole by Etest
# Description: Direct antimicrobial activity against Gram-negative and Gram-positive bacterial strains, as well as against yeast, was examined as previously described by the disc-diffusion test, the MIC determination assay, the MBC (for bacteria), and the MFC (for yeasts) determination tests. All the above-mentioned tests were performed according to EUCAST [71, 72] and CLSI [73, 74, 75, 76, 77] recommendations. […]
ENDPOINT LABEL: MIC (µg/mL)

Examples with answers:
* OB(O)c1c(F)c(F)c(F)c(F)c1B(O)O [3d] | 200
* OB(O)c1ccc(Br)c(B(O)O)c1 [2f] | 200
* OB(O)c1cccc(F)c1B(O)O [3b] | 100

1 = OB(O)c1ccccc1S [7c, 2-mercaptophenylboronic acid]
2 = OB(O)c1ccc(B(O)O)c(F)c1F [1c]
Q. Input pair: 1 , 2 . Output: entry with lower MIC. Choose, then provide that item's label.
A. 1

* * *

# PROCEDURE TEXT: MTT-based viability assay
# Format: cell-based
# CONDITION: human; 50 mg/L, 72 h; read-out: Viability of MRC-5 cells (% of viable cells ± SD)
In this section, each of the compounds is paired with its reported viability at 72 h, 50 mg/L.
# output: bare number, implied unit %

• OB(O)c1ccccc1 [PBA, phenylboronic acid, reference compound] = 58.7

Consider now this further compound.
Q. # query: viability at 72 h, 50 mg/L of entry C[Si](C)(C)c1cc(B(O)O)c([Si](C)(C)C)cc1B(O)O
A. 28.9

* * *

# PROCEDURE TEXT: MTT-based viability assay
# Format: cell-based
# CONDITION: human
ENDPOINT LABEL: viability at 72 h, 25 mg/L (%)
Unit % implied. Number only.

Q. Would you kindly share the measured viability at 72 h, 25 mg/L for OB(O)c1cc(F)ccc1F [7a, 2,5-difluorophenylboronic acid] ?
A. 79.9

* * *

# PROCEDURE TEXT: MTT-based viability assay
# Type: cell-based
# CONDITION: human, MRC-5 human fibroblasts; 12.5 mg/L, 72 h; read-out: Viability of MRC-5 cells (% of viable cells ± SD)
ENDPOINT LABEL: viability at 72 h, 12.5 mg/L (%)
Give the value in % but do not write % after it.

Answered cases to consult:
• OB(O)c1ccc(B(O)O)s1 [5b] = 101
• OB(O)c1cc(B(O)O)c(B(O)O)s1 [5c, thiophene-2,3,5-triboronic acid] = 102
• OB(O)c1ccc(B(O)O)c(B(O)O)c1 [4b, benzene-1,2,4-triboronic] = 114
• COc1c(B(O)O)cccc1B(O)O [2g] = 111

Q. Query: viability at 72 h, 12.5 mg/L; subject: OB(O)c1cc(C(F)(F)F)c(B(O)O)cc1C(F)(F)F [1h]
A. 101

Q. Again, but for OB(O)c1cc(F)cc(B(O)O)c1 [2b]
A. 108

Q. Would you kindly repeat that for OB(O)c1cc(B(O)O)c(F)cc1F [2c] ?
A. 89.1

Q. What do we get for OB(O)c1ccccc1S [7c, 2-mercaptophenylboronic acid] ?
A. 56.4

Q. Try the molecule OB(O)c1cc(F)c(B(O)O)c(F)c1F [1f]
A. 97.4

Q. Try the molecule OB(O)c1cc(F)c(B(O)O)cc1F [1e]
A. 107

Q. What do you get for OB(O)c1cc(C(F)(F)F)cc(B(O)O)c1F [2e] ?
A. 96.6

Q. OB(O)c1ccc(B(O)O)c(F)c1F [1c] ?
A. 112

Q. And the next one, OB(O)c1c(F)c(F)c(B(O)O)c(F)c1F [1g] ?
A. 104

Q. Now try OB(O)c1cccc(F)c1B(O)O [3b] .
A. 98.1

Q. Next up: OB(O)c1ccc(C(F)(F)F)cc1B(O)O [3e]
A. 98.8

Q. Consider next the molecule Cl.OB(O)c1cncc(B(O)O)c1 [6a] in the same way.
A. 138

Q. Now give it for OB(O)c1cccc(B(O)O)c1 [2a] too.
A. 94.4

Q. Next record, please: OB(O)c1cc(B(O)O)cc(B(O)O)c1 [4a, benzene-1,3,5-triboronic acid]
A. 102

Q. Also OB(O)c1cc(I)c(B(O)O)cc1I [1j] , if possible.
A. 125

Q. Moving on to OB(O)c1c(F)c(F)c(F)c(F)c1B(O)O [3d]
A. 91.3

Q. Also OB(O)c1ccc(Br)c(B(O)O)c1 [2f] ?
A. 103

Q. What would you report for OB(O)c1cc(F)c(B(O)O)c(F)c1 [1d] ?
A. 112

Q. Also, OB(O)c1cc(F)c(F)c(B(O)O)c1 [2d] please.
A. 107

Q. Again, but for COc1cc(B(O)O)c(OC)cc1B(O)O [1l]
A. 110

Q. # iterate: OB(O)c1ccsc1B(O)O [5a, thiophene-2,3-diboronic acid]
A. 88.6

Q. Same question, OB(O)c1ccc(B(O)O)c(F)c1 [1b] this time
A. 140

Q. Now the same for OB(O)c1ccc(F)cc1B(O)O [3c]
A. 97.1

Q. // same read-out, input: O=Cc1cc(F)ccc1B(O)O [7b]
A. 48.9

Q. How about OB(O)c1cc(Br)c(B(O)O)cc1Br [1i] ?
A. 122
